Every entry's value here was drawn from paper PMC11997890.

Target: CYP1A2 (Homo sapiens)
Construct: host or cells: human liver microsomes (one value) / recombinant CYP enzyme (other value)
Sequence (P05177 whole entry): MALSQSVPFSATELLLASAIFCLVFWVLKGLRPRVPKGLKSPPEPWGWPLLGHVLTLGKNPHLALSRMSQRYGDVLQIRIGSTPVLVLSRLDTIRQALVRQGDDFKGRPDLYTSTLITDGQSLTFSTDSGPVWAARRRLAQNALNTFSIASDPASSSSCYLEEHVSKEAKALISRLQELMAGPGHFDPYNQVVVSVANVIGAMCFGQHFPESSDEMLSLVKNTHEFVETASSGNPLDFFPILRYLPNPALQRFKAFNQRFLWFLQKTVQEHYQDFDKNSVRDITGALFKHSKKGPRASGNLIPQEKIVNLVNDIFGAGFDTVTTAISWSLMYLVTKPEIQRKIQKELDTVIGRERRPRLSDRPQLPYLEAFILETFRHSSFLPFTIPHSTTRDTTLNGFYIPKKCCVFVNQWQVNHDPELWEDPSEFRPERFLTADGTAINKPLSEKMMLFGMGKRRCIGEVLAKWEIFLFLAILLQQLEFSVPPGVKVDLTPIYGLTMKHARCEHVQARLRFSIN
Experiment: In vitro CYP inhibition, marker substrate phenacetin
Assay type: in vitro ADME
Details: HLM
measured_property: pIC50
Please report pIC50 as the negative decimal logarithm of the molar concentration, giving only the number.

Documented pIC50 of COc1cc(-c2cc3ccncc3c3nc(OCCN(C)C)c4cnccc4c23)cc(OC)c1OC [P8-D6] : 3.04

---

Molecular target: CYP2D6 (Homo sapiens, UniProt P10635)
Construct: host or cells: human liver microsomes (one value) / recombinant CYP enzyme (other value)
Sequence (P10635 whole entry): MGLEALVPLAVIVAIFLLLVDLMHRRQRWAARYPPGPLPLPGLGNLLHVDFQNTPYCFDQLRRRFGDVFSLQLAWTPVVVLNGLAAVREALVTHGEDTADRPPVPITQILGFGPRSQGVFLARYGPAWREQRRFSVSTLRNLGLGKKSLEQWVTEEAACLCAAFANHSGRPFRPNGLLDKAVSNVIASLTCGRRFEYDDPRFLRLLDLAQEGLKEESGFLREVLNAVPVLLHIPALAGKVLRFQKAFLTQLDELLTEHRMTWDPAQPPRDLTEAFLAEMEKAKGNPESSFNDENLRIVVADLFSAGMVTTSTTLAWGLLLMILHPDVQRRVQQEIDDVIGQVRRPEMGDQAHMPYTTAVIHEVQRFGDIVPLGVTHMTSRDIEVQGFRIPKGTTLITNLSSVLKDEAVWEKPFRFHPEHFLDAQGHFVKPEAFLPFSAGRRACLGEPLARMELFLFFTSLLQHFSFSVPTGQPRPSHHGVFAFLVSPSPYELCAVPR
Assay: In vitro CYP inhibition, marker substrate dextromethorphan
Format: in vitro ADME
Conditions: recombinant CYP isoenzyme
measured_property: IC50 (µM)
Provide the reading as a plain figure in µM.

Documented IC50 of `COc1cc(-c2cc3ccncc3c3nc(OCCN(C)C)c4cnccc4c23)cc(OC)c1OC` : 166

---

Target: CYP2C9 (Homo sapiens)
Construct: host or cells: human liver microsomes (one value) / recombinant CYP enzyme (other value)
Sequence (P11712 whole entry): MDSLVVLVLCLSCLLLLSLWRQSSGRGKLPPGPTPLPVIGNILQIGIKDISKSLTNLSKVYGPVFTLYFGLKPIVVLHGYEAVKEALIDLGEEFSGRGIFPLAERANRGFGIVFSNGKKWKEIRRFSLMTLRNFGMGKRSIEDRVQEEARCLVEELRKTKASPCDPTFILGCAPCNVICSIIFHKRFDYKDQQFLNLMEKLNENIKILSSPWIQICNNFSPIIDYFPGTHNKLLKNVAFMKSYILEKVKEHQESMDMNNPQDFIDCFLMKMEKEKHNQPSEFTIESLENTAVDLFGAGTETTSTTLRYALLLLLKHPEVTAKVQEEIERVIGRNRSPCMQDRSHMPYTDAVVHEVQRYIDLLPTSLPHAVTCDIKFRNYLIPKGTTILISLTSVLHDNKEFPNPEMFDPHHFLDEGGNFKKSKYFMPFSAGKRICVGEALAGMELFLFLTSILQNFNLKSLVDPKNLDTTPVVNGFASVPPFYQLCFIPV
Assay: In vitro CYP inhibition, marker substrate diclofenac
Type: in vitro ADME
Details: HLM
measured_property: IC50 (µM)
Provide the reading as a plain figure in µM.

Documented IC50 of `COc1cc(-c2cc3ccncc3c3nc(OCCN(C)C)c4cnccc4c23)cc(OC)c1OC` : 162

---

Test: In vivo plasma pharmacokinetics after i.v. and p.o. administration of P8-D6
Parameters: species or system Sprague–Dawley rats
Details: male, Sprague-Dawley, rat, plasma, po, 50 mg/kg body weight, p.o.; read-out: plasma half-life t 1/2 (converted)
measured_property: half-life (h)
Provide the reading as a plain figure in h.

Documented half-life of `COc1cc(-c2cc3ccncc3c3nc(OCCN(C)C)c4cnccc4c23)cc(OC)c1OC` : 8.6

---

Molecular target: CYP3A4 (Homo sapiens, UniProt P08684)
Construct: host or cells: human liver microsomes (one value) / recombinant CYP enzyme (other value)
Sequence (P08684 whole entry): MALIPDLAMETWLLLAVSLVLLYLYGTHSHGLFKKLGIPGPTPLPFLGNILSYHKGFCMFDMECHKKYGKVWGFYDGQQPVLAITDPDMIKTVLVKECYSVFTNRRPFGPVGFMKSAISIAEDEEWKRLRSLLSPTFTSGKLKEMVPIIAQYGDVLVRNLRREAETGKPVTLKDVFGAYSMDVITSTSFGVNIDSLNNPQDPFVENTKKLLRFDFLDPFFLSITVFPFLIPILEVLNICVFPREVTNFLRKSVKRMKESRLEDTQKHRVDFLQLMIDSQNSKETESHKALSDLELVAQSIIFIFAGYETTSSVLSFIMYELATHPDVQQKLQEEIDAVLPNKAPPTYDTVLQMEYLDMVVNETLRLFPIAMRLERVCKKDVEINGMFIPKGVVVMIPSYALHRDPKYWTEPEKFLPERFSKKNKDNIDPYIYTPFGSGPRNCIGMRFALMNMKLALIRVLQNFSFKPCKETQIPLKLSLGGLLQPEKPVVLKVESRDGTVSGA
Experiment: In vitro CYP inhibition, marker substrate testosterone
Assay type: in vitro ADME
Conditions: recombinant CYP isoenzyme
measured_property: pIC50
Please report pIC50 as the negative decimal logarithm of the molar concentration, giving only the number.

Documented pIC50 of `COc1cc(-c2cc3ccncc3c3nc(OCCN(C)C)c4cnccc4c23)cc(OC)c1OC` : 4.03

---

Molecular target: CYP2C9 (Homo sapiens)
Construct: host or cells: human liver microsomes (one value) / recombinant CYP enzyme (other value)
Assay: In vitro CYP inhibition, marker substrate diclofenac
Assay type: in vitro ADME
Settings: recombinant CYP isoenzyme
measured_property: pIC50
Please report pIC50 as the negative decimal logarithm of the molar concentration, giving only the number.

Documented pIC50 of `COc1cc(-c2cc3ccncc3c3nc(OCCN(C)C)c4cnccc4c23)cc(OC)c1OC` : 4.15

---

Molecular target: CYP2C8 (Homo sapiens, UniProt P10632)
Construct: host or cells: human liver microsomes (one value) / recombinant CYP enzyme (other value)
Sequence (P10632 1-490): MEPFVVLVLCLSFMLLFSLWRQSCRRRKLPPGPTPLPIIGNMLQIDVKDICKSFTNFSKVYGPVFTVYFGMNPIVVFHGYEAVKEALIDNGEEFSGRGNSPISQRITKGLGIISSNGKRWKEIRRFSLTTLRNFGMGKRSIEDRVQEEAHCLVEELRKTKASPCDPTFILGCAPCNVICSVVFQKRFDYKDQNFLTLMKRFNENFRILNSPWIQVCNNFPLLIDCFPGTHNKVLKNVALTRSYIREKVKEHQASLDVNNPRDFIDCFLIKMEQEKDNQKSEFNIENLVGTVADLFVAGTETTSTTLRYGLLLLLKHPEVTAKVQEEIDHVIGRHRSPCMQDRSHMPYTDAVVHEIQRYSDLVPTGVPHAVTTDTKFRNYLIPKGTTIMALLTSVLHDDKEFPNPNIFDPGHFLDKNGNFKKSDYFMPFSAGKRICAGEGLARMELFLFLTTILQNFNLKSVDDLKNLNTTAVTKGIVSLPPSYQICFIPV
Test: In vitro CYP inhibition, marker substrate amodiaquine
Type: in vitro ADME
Details: HLM
measured_property: pIC50
Please report pIC50 as the negative decimal logarithm of the molar concentration, giving only the number.

With CYP2C8 (Homo sapiens, UniProt P10632) as the test system, `COc1cc(-c2cc3ccncc3c3nc(OCCN(C)C)c4cnccc4c23)cc(OC)c1OC` showed pIC50 of 3.61
